Experiment: Toxicokinetics in the 4-week mini-pig toxicity study
Format: in vivo
Settings: Gottingen, minipig, plasma; Day 28, 450 mg/kg oral, female minipigs
Experimental: Doses tested, 50, 150 and 450 mg/kg were given by p.o. to 3 animals/sex/group daily. The control animals were administered vehicle. The dose volume was 5 mL/kg for all groups. Toxico Kinetic (TK) was evaluated on all animals on study Day 1 and Day 28 at different time points.
recorded-metric: Cmax (ng/mL)

[[record]]
compound = "Fc1ccc2c3c([nH]c2c1)CCN(c1ccc2oc(N4CCOCC4)nc2c1)C3 [ACI-3024]"
reported = 7350


====

test: Pharmacokinetics in SAD and MAD studies (plasma, urine); type: in vivo; conditions: human, plasma, oral; humans; read-out: plasma half-life
recorded-metric: half-life

[[record]]
smiles_entry = "Fc1ccc2c3c([nH]c2c1)CCN(c1ccc2oc(N4CCOCC4)nc2c1)C3"
reported = "> 24 h"

